molecular target: PD-1/PD-L1 interaction (Homo sapiens); test: HTRF-based PD-1/PD-L1 binding assay; settings: HTRF; two independent experiments
Sequence (Q9NZQ7 19-238 limits assumed): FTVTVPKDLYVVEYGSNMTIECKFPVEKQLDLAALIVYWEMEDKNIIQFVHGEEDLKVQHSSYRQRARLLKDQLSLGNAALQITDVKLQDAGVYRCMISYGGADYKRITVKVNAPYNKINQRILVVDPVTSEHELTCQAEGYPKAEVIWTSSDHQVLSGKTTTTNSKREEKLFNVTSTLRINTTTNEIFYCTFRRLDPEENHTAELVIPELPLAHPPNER
Each record is given MET if its reported IC50 is strictly below 20 nM. Records at or above 20 nM are given NOT MET.

Reference set, count: 10
COc1nc(-c2cccc(-c3ccc(C(F)(F)F)cc3F)c2C)ccc1CNCCC(N)=O
NOT MET
COc1nc(-c2cccc(-c3ccccc3C(F)(F)F)c2C)ccc1CNCCC(N)=O
NOT MET
COc1nc(-c2cccc(-c3ccccc3F)c2C)ccc1CNC1CCC(O)CC1 (centres unmarked)
MET
COc1nc(-c2cccc(-c3cccc(F)c3)c2C)ccc1CNCCC(N)=O
MET
COc1nc(-c2cccc(-c3ccc(F)cc3)c2C)ccc1CNCCC(N)=O
MET
COc1nc(-c2cccc(-c3ccccc3Cl)c2C)ccc1CNCCC(N)=O
MET
COc1nc(-c2cccc(-c3ccccc3F)c2C)ccc1CN1CCC(O)CC1
NOT MET
COc1nc(-c2cccc(-c3ccccc3C)c2C)ccc1CNCCC(N)=O
MET
COc1nc(-c2cccc(-c3ccc(Cl)cc3F)c2C)ccc1CNCCC(N)=O
NOT MET
COc1nc(-c2cccc(-c3ccc(F)cc3F)c2C)ccc1CNCCC(N)=O
NOT MET

### Prompt Confirm or reject: IC50 of COc1nc(-c2cccc(-c3ccccc3F)c2C)ccc1CN1CCC(C(N)=O)CC1 lies strictly below 20 nM
### Response MET

### Prompt A record lists COc1nc(-c2cccc(-c3ccccc3F)c2C)ccc1CN1CCC(C(=O)O)CC1 . Is its IC50 below 20 nM?
### Response NOT MET

### Prompt Does the reported IC50 of COc1nc(-c2cccc(-c3ccccc3)c2C)ccc1CNCCC(N)=O stay below 20 nM?
### Response MET

### Prompt Hello, I'm reviewing records and need to know if IC50 of COc1nc(-c2cccc(-c3ccccc3F)c2C)ccc1CNCCC(N)=O is below 20 nM. Could you check?
### Response MET

### Prompt Quick check: does COc1cc(-c2cccc(-c3ccccc3F)c2C)ccc1CN1CCC(O)CC1 have IC50 under 20 nM?
### Response MET

### Prompt Strictly below 20 nM: is that where IC50 of COc1nc(-c2cccc(-c3ccccc3F)c2C)ccc1CN1CCCC(C(N)=O)C1 (centres unmarked) sits?
### Response NOT MET

### Prompt Criterion: IC50 strictly below 20 nM. Is it met by Cc1ccccc1-c1cccc(OCCCN2CCC(O)CC2)c1C.Cl ?
### Response NOT MET
